target: human MC4R receptor (human, UniProt P32245 1-332); test: cell-based or functional assay
Sequence (P32245 whole entry): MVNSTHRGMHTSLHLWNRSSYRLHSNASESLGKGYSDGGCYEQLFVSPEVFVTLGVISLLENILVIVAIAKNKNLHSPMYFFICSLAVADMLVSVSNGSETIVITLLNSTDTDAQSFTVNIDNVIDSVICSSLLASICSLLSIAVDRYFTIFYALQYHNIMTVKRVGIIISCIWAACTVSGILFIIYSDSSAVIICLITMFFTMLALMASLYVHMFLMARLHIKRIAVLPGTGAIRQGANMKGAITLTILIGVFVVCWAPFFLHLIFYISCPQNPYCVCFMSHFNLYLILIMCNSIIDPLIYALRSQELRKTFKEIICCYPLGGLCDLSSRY
Positions of bridges follow the written chain, without caps; N, C: chain ends. Non-standard residues stand in square brackets, D forms with d. dNMeF = CN[C@H](Cc1ccccc1)C(=O)O
METRIC: MC4R selectivity vs MC3R
Field format: numeric only.

BINDER	METRIC	MEASURED_VALUE
Ac-RC[dA]R[dF][dR][dW]C-NH2 (disulfide 2-8; SMILES CC(=O)N[C@@H](CCCNC(=N)N)C(=O)N[C@H]1CSSC[C@@H](C(N)=O)NC(=O)[C@@H](Cc2c[nH]c3ccccc23)NC(=O)[C@@H](CCCNC(=N)N)NC(=O)[C@@H](Cc2ccccc2)NC(=O)[C@H](CCCNC(=N)N)NC(=O)[C@@H](C)NC1=O) [CTX-1283]	MC4R selectivity vs MC3R	0.12

Proceed to the following item.
Quick one: give measured MC4R selectivity vs MC3R for Ac-RC[dA]R[dNMeF]R[dW]C-NH2 (disulfide 2-8; SMILES CC(=O)N[C@@H](CCCNC(=N)N)C(=O)N[C@H]1CSSC[C@@H](C(N)=O)NC(=O)[C@@H](Cc2c[nH]c3ccccc23)NC(=O)[C@H](CCCNC(=N)N)NC(=O)[C@@H](Cc2ccccc2)N(C)C(=O)[C@H](CCCNC(=N)N)NC(=O)[C@@H](C)NC1=O) [CTX-1272]
0.9
